MEASUREMENT TARGET: human recombinant trypsin (r-h trypsin) (Homo sapiens (Human), UniProt P07477)
EXPERIMENTAL DETAILS: Inhibitory activity of trypsin enzyme (human recombinant trypsin, BZiPAR fluorescent substrate)
CONDITION SUMMARY: human recombinant trypsin 0.088 μg/mL, 30 minutes at room temperature
pIC50: −log10 of the molar value.
ATTRIBUTE MEASURED: pIC50

// known answers, use as guide
N=C(N)Nc1ccc(C(=O)Oc2ccc(CCC(=O)NCc3ccccc3C(=O)O)c(Cl)c2)cc1 [Example 52]: 9.52
N=C(N)Nc1ccc(C(=O)Oc2cc(Cl)c(CC(=O)N[C@@H](Cc3ccccc3)C(=O)O)c(Cl)c2)cc1 [Example 27]: 9.59

A. N=C(N)Nc1ccc(C(=O)Oc2ccc3nc(C(=O)N[C@@H](Cc4ccc(OCC(=O)O)cc4)C(=O)O)ccc3c2)cc1 [Example 71]
B. N=C(N)Nc1ccc(C(=O)Oc2ccc(CC(=O)N[C@@H](Cc3ccccc3F)C(=O)O)c(Cl)c2)cc1 [Example 29]
-- ask Determine, for A and B , which has the greater value of pIC50. Write down the label attached to your selection.
-- reply A

* * *

MEASUREMENT TARGET: mouse trypsin (m-trypsin)
EXPERIMENTAL DETAILS: Inhibitory activity of trypsin enzyme (mouse trypsin purified from small intestine contents, BZiPAR fluorescent substrate)
CONDITION SUMMARY: mouse trypsin diluted 1/50, BZiPAR substrate, 30 minutes at room temperature
Where a name gives a salt, the structure may show the parent alone.
ATTRIBUTE MEASURED: IC50 (nM)

// known answers, use as guide
N=C(N)Nc1ccc(C(=O)Oc2ccc(CCC(=O)N(Cc3cccc(C(=O)O)c3)Cc3cccc(C(=O)O)c3)c(Cl)c2)cc1 [Example 93]: 0.56
N=C(N)Nc1ccc(C(=O)Oc2ccc(CC(=O)N[C@@H](Cc3cccc(F)c3)C(=O)O)c(Cl)c2)cc1 [Example 30]: 0.19
CC(C)(Oc1ccc(C[C@H](NC(=O)CCc2ccc(OC(=O)c3ccc(NC(=N)N)cc3)cc2Cl)C(=O)O)cc1)C(=O)O [Example 96]: 0.46

P. CN(C(=O)N(CC(=O)O)Cc1cccc(C(=O)O)c1)c1ccc(OC(=O)c2ccc(NC(=N)N)cc2)cc1Cl [Example 61]
Q. N=C(N)Nc1ccc(C(=O)Oc2ccc(CCC(=O)NCc3ccccc3C(=O)O)c(Cl)c2)cc1 [Example 52]
R. N=C(N)Nc1ccc(C(=O)Oc2ccc(CCC(=O)N(CC(=O)O)Cc3cc(C(=O)O)cc(C(=O)O)c3)c(Cl)c2)cc1 [Example 64]
S. N=C(N)Nc1ccc(C(=O)Oc2ccc(CC(=O)N[C@@H](Cc3ccccc3F)C(=O)O)c(Cl)c2)cc1 [Example 29]
-- ask Sort (4 molecules) by IC50: min first. Your task in answering is to list the labels in the requested order.
-- reply P, S, Q, R
(P: 0.14 nM, S: 0.21 nM, Q: 0.39 nM, R: 0.7 nM)

1. N=C(N)Nc1ccc(C(=O)Oc2ccc(CCC(=O)Nc3ccc(CC(=O)O)cc3)c(Cl)c2)cc1 [Example 11]
2. C[C@H](C(=O)O)N(Cc1csc(C(=O)O)c1)C(=O)c1ccc2cc(OC(=O)c3ccc(NC(=N)N)cc3)ccc2n1 [Example 102]
3. N=C(N)Nc1ccc(C(=O)Oc2ccc(CC(=O)N[C@@H](Cc3ccc(O)cc3)C(=O)O)c(Cl)c2)cc1 [Example 1, hydrochloride]
4. N=C(N)Nc1ccc(C(=O)Oc2ccc(CCC(=O)N(CCC(=O)O)Cc3cccc(C(=O)O)c3)c(Cl)c2)cc1 [Example 45]
-- ask Sort (4 molecules) by IC50: min first. Your task in answering is to list the labels in the requested order.
-- reply 3, 2, 1, 4
